All values here come from paper PMC3510433.

experiment: Membrane permeability, Caco-2 cell model; assay type: in vitro ADME; conditions: human, Caco-2; apical to basolateral, 20 μM
measured-metric: Papp A→B at 20 μM (×10⁻⁶ cm/s)
Entry rule: numbers only, all in ×10⁻⁶ cm/s.

Indicate the recorded Papp A→B at 20 μM value for this molecule: "CN(Cc1cccs1)C(=O)C12CC3CC(CC(C3)C1)C2"
33

----------
measured-metric: melting point

Consider the following illustrative entries.
CN(Cc1cccc(N)c1)C(=O)C12CC3CC(CC(C3)C1)C2
105 to 106.5 °C
Cn1cccc1CNC(=O)C12CC3CC(CC(C3)C1)C2
117 to 119 °C
CN(Cc1ccc(Cl)s1)C(=O)C12CC3CC(CC(C3)C1)C2
92 to 94 °C

Answer with the recorded melting point of "Cc1ccsc1CN(C)C(=O)C12CC3CC(CC(C3)C1)C2" only.
72 to 73.5 °C

Give melting point for "CN(Cc1cccs1)C(=O)C12CC3CC(CC1C3)C2"
87 to 88.5 °C

Give reported melting point value for "CN(Cc1cccnc1)C(=O)C12CC3CC(CC(C3)C1)C2"
57 to 59.5 °C

Consider the molecule "O=C(CC12CC3CC(CC(C3)C1)C2)NCc1cccs1" . State its measured melting point.
117 to 119 °C

Provide only the value of recorded melting point for "CN(Cc1cccs1)C(=O)C1(c2ccc(Cl)cc2)CCCC1"
58 to 60 °C

State its melting point for this molecule: "Cc1csc(CN(C)C(=O)C23CC4CC(CC(C4)C2)C3)c1"
87 to 88 °C

Return value of melting point for input "CN(Cc1ccsc1)C(=O)CC12CC3CC(CC(C3)C1)C2" , no commentary.
117 to 119 °C

Please report melting point for the following molecule: "O=C(NCCc1ccccn1)C12CC3CC(CC(C3)C1)C2"
76 to 79 °C

Provide only the value of recorded melting point for "O=C(NCCc1cccnc1)C12CC3CC(CC(C3)C1)C2"
83 to 85 °C

Give the measured melting point for "CN(Cc1cccnc1)C(=O)CC12CC3CC(CC(C3)C1)C2"
67 to 68.5 °C
